assay: GSK_TCMDC: Inhibition Frequency Index (IFI). The number of non-kinase HTS assays where a compound showed > 50 % inhibition, expressed as a percentage of the number of such assays in which the compound was tested; type: functional
In all, about 13,000 compounds were measured (“IFI”: median about 4, highest 2% from about 17 on). Only a selection was taken, and the highest values are over-represented in it overall.
# IFI values compiled below
measuredProperty: IFI (%)

* CCOc1c(CNCCCCCCNCc2ccc3ccccc3c2OCC)ccc2ccccc12 | 22
* CCCCOc1c(CCNCCCCNCCc2cc(OC)c3ccccc3c2OCCCC)cc(OC)c2ccccc12 | 15
* NC(=O)C1CCN(Cc2ccc(-c3cccc(-c4nc5cc(F)ccc5[nH]4)c3)cc2)CC1 | 0
* O=C(/C=C/c1ccc(Cl)c(Cl)c1)N1CCN(C(=O)Nc2ccc(F)c(Cl)c2)CC1 | 15.2
* Cc1cccc(C)c1N1CCN(C2CCC(NC(=O)c3cc4ccccc4[nH]3)CC2)CC1 (configuration not stated) | 13.2
* CCCCCc1ccc(NC(=O)Nc2ccc(Cn3ncc(N4CCCNCC4)c(Cl)c3=O)cc2)cc1 | 9.09
* Oc1c(CN2CCCC(C(F)(F)F)C2)cc(Cl)c2ccccc12 (configuration not stated) | 6.38
* Cc1cccc(CNc2nc(C)cc(N[C@@H](Cc3ccccc3)C(=O)NC3CCCC3)n2)c1 | 27.3
* O=C(Nc1cccc(C(F)(F)F)c1)c1cccc2nc(C(F)(F)F)[nH]c12 | 16.4
* O=C(Nc1ccc(Cl)cc1)c1cc(Cl)cc2nc(C(F)(F)F)[nH]c12 | 27.1
* O=C(/C=C/c1ccc(Cl)c(Cl)c1)NCCCCCCN1CCCN(C(=O)Nc2cccc(C(F)(F)F)c2)CC1 | 8.26
* CCCOc1c(CCNCCCCNCCc2ccc3ccccc3c2OCCC)ccc2ccccc12 | 14.7
* Cc1cccc2nc(-c3ccc(-c4ccc(CN5CCCC(N)C5)cc4)cc3)[nH]c12 (configuration not stated) | 4.23
* O=C(/C=C/c1ccc(Cl)c(Cl)c1)N1CCN(C(=O)Nc2cccc(C(F)(F)F)c2)CC1 | 24.2
* O=C(/C=C/c1ccc(Cl)c(Cl)c1)N1CCN(C(=O)Nc2ccc(C(F)(F)F)cc2)CC1 | 22.1
* Cc1cc(N[C@@H](Cc2ccccc2)C(=O)NC2CCCC2)nc(Nc2ccccc2)n1 | 7.32
* O=C(C=Cc1ccc(Cl)c(Cl)c1)NCCCCCN1CCCC(CCCNS(=O)(=O)c2cccc3cccnc23)C1 (configuration not stated) | 5.8
* C[C@@H](C(N)=O)N1CCCCC1c1ccc(OCc2cccc(F)c2)cc1 (some centres not stated) | 33.8
* c1ccc(CNCc2cccc(-c3ccc(-c4nc5ccccc5[nH]4)s3)c2)cc1 | 3.92
* Oc1ccc(CCNc2nc(NCc3ccccc3-c3ccc(C(F)(F)F)cc3)nc(N3CCNCC3)n2)cc1 | 13.1
* Oc1ccc(CCNc2nc(NCCOc3cccc4ccccc34)nc(N3CCNCC3)n2)cc1 | 16.4
* Cc1cc(N[C@@H](Cc2ccccc2)C(=O)NC2CCCC2)nc(NCC2CCCCC2)n1 | 26.2
* Oc1ccc(CCNc2nc(NCCCOc3ccccc3-c3ccc(F)cc3)nc(N3CCNCC3)n2)cc1 | 13.8
* Cc1ccc(Nc2nccc(Nc3ccc4c(c3)nc(Nc3cc(C(C)(C)C)on3)n4C)n2)cc1S(C)(=O)=O | 7.63
* CN(Cc1cccc(F)c1)C1CCN(c2cc(NC(=O)c3ccc(F)cc3)ccn2)CC1 | 0
* Cc1cccc2nc(-c3ccc(-c4ccc(CN5CCCC(N)C5)cc4)s3)[nH]c12 (configuration not stated) | 5.56
* CN1CCN(c2nc(NCCc3ccc(O)cc3)nc(NCc3ccccc3-c3ccc(C(F)(F)F)cc3)n2)CC1 | 11.8
* CCCCOC(=O)c1ccc(NC(=O)Nc2ccc(Cn3ncc(N4CCCNCC4)c(Cl)c3=O)cc2)cc1 | 5.97
* C=CCOC(=O)N1CCC(CNCc2cccc(-c3ccc(-c4nc5cccc(C)c5[nH]4)s3)c2)C1 (configuration not stated) | 3.81
* COc1ccc(Cl)cc1C(=O)Nc1ccc(-c2nc3ccccc3[nH]2)cc1 | 6.52
* Oc1ccc(CCNc2nc(NCCCOc3ccccc3-c3cccc(C(F)(F)F)c3)nc(N3CCNCC3)n2)cc1 | 10.5
* O=C(Cn1c(SCc2cccc(F)c2F)cc(=O)c2ccccc21)N(CCCn1ccnc1)Cc1ccc(-c2ccc(C(F)(F)F)cc2)cc1 | 2.17
* O=C(NC1CCC(N2CCC(Cc3ccc(F)cc3)CC2)CC1)c1cc2ccccc2[nH]1 (configuration not stated) | 14.7
* Cc1cc2nc(N/C(N)=N/C(=O)NC3CCCCC3)nc(C)c2cc1C | 9.38
* O=C(Nc1ccc(Cl)cc1)c1cccc2nc(C(F)(F)F)[nH]c12 | 21.3
* O=C(Nc1ccc(Cl)cc1)Nc1cccc(-c2cccc(-c3nc4cc(C(F)(F)F)ccc4[nH]3)c2)c1 | 9
* O=C(Nc1ccc(C(F)(F)F)cc1)N[C@H]1CCN(CCCCCNC(=O)C2CC2c2ccc(Cl)c(Cl)c2)C1 (some centres not stated) | 16.8

----------
test: GSK_TCMDC: Inhibition Frequency Index (IFI). The number of non-kinase HTS assays where a compound showed > 50 % inhibition, expressed as a percentage of the number of such assays in which the compound was tested; assay type: functional
In all, about 13,000 compounds were measured (“IFI”: median about 4, highest 2% from about 17 on). For the sample, the highest values were picked, then their nearest neighbours and some compounds at random.
Each entry belongs to exactly one class, chosen by where its IFI falls: one (below 2%), two (2% to below 7%), three (7% or more)

• COc1cccc(Nc2nccc(-c3c(-c4cccc(NC(=O)c5c(F)cccc5F)c4)nn4ccccc34)n2)c1 = two
• COc1ccccc1C1CCN(C2CCC(NC(=O)/C=C/c3cc(F)cc(C(F)(F)F)c3)CC2)CC1 (stereo not given) = three
• Cc1cc(=NN=Cc2cccc(Cl)c2)c2ccc(F)cc2[nH]1 = one
• CCCCOc1cc2c(cc1OCC)C(C=Cc1ccc(Cl)cc1Cl)=NCC2 = two
• Oc1c(C(Nc2nc3ccccc3s2)c2ccc(OC(F)F)cc2)ccc2cccnc12 (stereo not given) = three
• Cc1cc(N)c2cc(NC(=O)c3ccc4ccccc4c3)ccc2n1 = two
• COc1ccc2c(c1CNCCCCCCNCc1c(OC)ccc3c1CCCC3)CCCC2 = three
• CCOc1ccc(C(Cc2ccccc2)NC(=O)c2cccnc2)cc1OCC (stereo not given) = one
• N=C1N=C(N)NCN1OCc1ccc(Cl)c(Cl)c1 = one

----------
assay: GSK_TCMDC: Inhibition Frequency Index (IFI). The number of non-kinase HTS assays where a compound showed > 50 % inhibition, expressed as a percentage of the number of such assays in which the compound was tested; format: functional
Whole data set: some 13,000 compounds, median “IFI” near 4, cut for the highest 2% near 17. The list comes from a sample in which the highest values are over-represented; it also holds close analogues and randomly drawn compounds.
# IFI values compiled below
measuredProperty: IFI (%)

* COc1ccc2nc(C)cc(NCc3cccc4ccccc34)c2c1 | 1.46
* Fc1ccc(C=NNc2nc3ccccc3[nH]2)cc1 | 1.42
* Cc1ccc(NC(=N)Nc2ncccc2OCc2c(F)cccc2Cl)cc1 | 22
* CC(C)C[C@H](Nc1ccnc(NCC2CCCCC2)n1)C(=O)NCCc1ccccc1 | 8.89
* COc1ccc(/N=C(\N)Nc2ccccc2)nc1Cc1ccccc1 | 30.2
* Cc1cc(NCCc2ccccc2)nc(NC(=N)Nc2cccc(F)c2)n1 | 6.77
* Cc1nc(C)c(-c2ccc(C(F)(F)F)cc2)c(O)c1Br | 0
* O=C(NCCc1ccccc1)[C@H](Cc1ccccc1)Nc1ccnc(NCC2CCCCC2)n1 | 20.4
* CC1(C)N=C(N)N=C(Nc2ccc(Cl)cc2)N1 | 0.76
* Cc1ccc(CNC(=O)[C@H](Cc2ccccc2)Nc2ccnc(NCC3CCCCC3)n2)cc1 | 11.1
* COc1ccc(Cc2nc(/N=C(\N)Nc3ccccc3)ccc2OC)cc1 | 22.6

----------
assay: GSK_TCMDC: Inhibition Frequency Index (IFI). The number of non-kinase HTS assays where a compound showed > 50 % inhibition, expressed as a percentage of the number of such assays in which the compound was tested; assay type: functional
The full ranking holds about 13,000 compounds; the median of “IFI” is about 4, and the highest 2% start at about 17. For the sample, the highest values were picked, then their nearest neighbours and some compounds at random.
# IFI values compiled below
measuredProperty: IFI

- Cc1c(CN2CCCCC2)cccc1OCCCNc1nc(NCCc2ccc(O)cc2)nc(N2CCNCC2)n1: 7.58%
- O=C(/C=C/c1ccc(Cl)cc1)NCCCCCN1CCCN(C(=O)Nc2ccc(Cl)c(C(F)(F)F)c2)CC1: 14.3%
- O=C(Nc1ccc([N+](=O)[O-])cc1O)Nc1ccccc1Oc1ccccc1: 17%
- CC(CN(C)C)C(=O)Nc1cccc(-c2ccc(-c3nc4cc(C(F)(F)F)ccc4[nH]3)cc2)c1 (stereo not drawn): 6.31%
- COc1ccc(-c2ccccc2OCCCNc2nc(NCCc3ccc(O)cc3)nc(N3CCNCC3)n2)cc1: 13.8%
- CN1CCN(CCNc2c3ccccc3nc3c2ccc2ccccc23)CC1: 6.99%
- Oc1ccc(CCNc2nc(NCc3ccccc3-c3cccc(Cl)c3)nc(N3CCNCC3)n2)cc1: 15.4%
- Cc1cc(OCCCNc2nc(NCCc3ccc(O)cc3)nc(N3CCNCC3)n2)c(Cl)c(C)c1Cl: 18.5%
- COC(=O)C(=C(C)C)N1C(=O)[C@@H](NC(=O)OCc2ccccc2)[C@H]1SS[C@@H]1[C@H](NC(=O)OCc2ccccc2)C(=O)N1C(C(=O)OC)=C(C)C: 4.41%
- Cc1cccc(-c2cccc(CNc3nc(NCCc4ccc(O)cc4)nc(N4CCNCC4)n3)c2)c1: 12.7%
- CC1(C(=O)Nc2ccc([N+](=O)[O-])cc2O)CC2c3ccccc3C1c1ccccc12 (stereo not drawn): 17.4%
- Oc1ccc(CCNc2nc(N/N=C/c3ccc(Cl)cc3)nc(N3CCNCC3)n2)cc1: 0.75%
- C[C@@]12C[C@@H](Nc3nc(NCCc4ccc(O)cc4)nc(N4CCNCC4)n3)C[C@@H](C1)c1cccc(Cl)c1O2: 20.9%
- Oc1ccc(CCCNc2nc(NCc3cccc4ccccc34)nc(N3CCNCC3)n2)cc1: 7.69%
- O=C(/C=C/c1ccc(Cl)c(Cl)c1)NCCCCCN1CCCC(CCCNC(=O)Nc2ccc(C(F)(F)F)cc2)C1 (stereo not drawn): 11.3%
- COc1ccccc1CNc1ccnc(NCCc2cccc(C(F)(F)F)c2)n1: 16%
- FC(F)(F)c1cccc(CCNc2nccc(NCc3ccc(Cl)cc3Cl)n2)c1: 25%
- O=[N+]([O-])c1ccc(N/C(=N\c2ccccc2Br)NC2CCCc3ccccc32)c(O)c1 (stereo not drawn): 4.17%
